Tested on: DMS-273
Experiment: NCI tumour cell line growth inhibition, 48 h
Active and inactive are the calls of the source. Cut-off read from the data, not from the text of the source: active = GI50 up to about 1.1 µM and inactive = higher.
Give one outcome, nothing more. List: active, inactive

{"Compound": "Cn1ncc(=S)[nH]c1=S", "Cat": "inactive"}
{"Compound": "COc1ccc2cc3[n+](cc2c1OC)CCc1cc2c(cc1-3)OCO2 [BERBERINE CHLORIDE]", "Cat": "inactive"}

Challenge: Would you mind telling me which call this test gave CC1CC(C)CC(C)C(O)/C(C#N)=C/C=C/CC(C2CCCC2C(=O)O)OC(=O)CC(O)C(C)C1 (stereo not given) ?
Response given: active

Challenge: Would you mind telling me which call this test gave Clc1ccc(CCn2cncn2)c(Cl)c1 ?
Response given: inactive

Challenge: Would you mind telling me which call this test gave CC1=Nn2c(nnc2-c2ccccc2Cl)NC(C)(C)C1 ?
Response given: inactive

====

System: ACHN
Assay: NCI tumour cell line growth inhibition, 48 h
Active and inactive are the calls of the source. Rule as the data show it: active = GI50 up to about 1.1 µM and inactive = higher.
Give one outcome, nothing more. List: true (active), false (inactive)

# example entries with known answers
{"Molecule": "O=[N+]([O-])/C(C(Cl)=C(Cl)Cl)=C(/Nc1ccccc1)SCc1ccccc1", "Cat": "false"}
{"Molecule": "Cc1cccc(C)c1NC(=O)C(=O)Cc1nc2ccccc2s1", "Cat": "false"}
{"Molecule": "CO[C@H]1C[C@H](n2cc(C)c(=O)[nH]c2=O)O[C@@H]1CO", "Cat": "false"}
{"Molecule": "CN(C)C(=N)NC(N)=S", "Cat": "false"}
{"Molecule": "COC(=O)c1cccn1C(=O)n1cccc1", "Cat": "false"}

Challenge: Would you mind telling me which call this test gave CC(=O)/N=C1/N(/C=C2\C(=O)Oc3ccccc3C2=O)C(=O)/C(=C/c2cccc(Cl)c2Cl)N1C ?
Response given: false

Challenge: Would you mind telling me which call this test gave CCOC(=O)c1cn(C)nc1N/C(C)=C\C(=O)c1ccccc1 ?
Response given: false

Challenge: Would you mind telling me which call this test gave CN(C)C(=S)OC(Cn1cncn1)c1ccc(Cl)cc1Cl (centres undefined) ?
Response given: false

Challenge: Would you mind telling me which call this test gave C=C1CCC(CC[C@@H]2CC[C@]3(OC2)O[C@@]2(O)CC[C@]3(C)OC2(C)C)C(C)(C)[C@H]1C/C=C1/C(=O)OC[C@@H]1O (some centres undefined) ?
Response given: false

Challenge: Would you mind telling me which call this test gave CCN(CC)c1ccc(/C=C/C(=O)c2cc(C(C)(C)C)c(O)c(C(C)(C)C)c2)cc1 ?
Response given: false

Challenge: Would you mind telling me which call this test gave CSc1nn(C)cc2nc(C)nc1-2 ?
Response given: false

Challenge: Would you mind telling me which call this test gave Cc1ccc(/C=C/C(=O)Oc2ccc(/C=C3\CCC/C(=C\c4ccc(OC(=O)/C=C/c5ccc(C)cc5)cc4)C3=O)cc2)cc1 ?
Response given: false

Challenge: Would you mind telling me which call this test gave COc1ccccc1/C(=N\OCCC(=O)O)c1cccs1 ?
Response given: false

Challenge: Would you mind telling me which call this test gave O=C(C=P(c1ccccc1)(c1ccccc1)c1ccccc1)c1ccc(-c2cccs2)cc1 ?
Response given: false

Challenge: Would you mind telling me which call this test gave Clc1ccc(CCN(CCc2ccc(Cl)c(Cl)c2)CCN2CCCC2)cc1Cl ?
Response given: false

Challenge: Would you mind telling me which call this test gave N#CC(C(=O)CCC(=O)Nc1ccc(Cl)cc1)c1ccc(Cl)cc1 (centres undefined) ?
Response given: false

Challenge: Would you mind telling me which call this test gave O=C(O)CCCSc1nc2ccccc2s1 ?
Response given: false

Challenge: Would you mind telling me which call this test gave Nc1ccc(-c2nc3ccccc3s2)cc1Cl ?
Response given: false

Challenge: Would you mind telling me which call this test gave COC(=O)C1=C(C)NC2=C(C(=O)c3ccccc32)C1c1cn(-c2ccccc2)nc1-c1ccccc1 (centres undefined) ?
Response given: false

Challenge: Would you mind telling me which call this test gave O=[N+]([O-])c1cccc2nc3ccccc3c(NCCC[N+]3([O-])CCOCC3)c12 ?
Response given: true

Challenge: Would you mind telling me which call this test gave CCOC(=O)C(O)Cc1cnc2ccccc2n1 (centres undefined) ?
Response given: false

Challenge: Would you mind telling me which call this test gave O=C1/C(=C/c2ccc([N+](=O)[O-])cc2)Oc2cc(O)ccc21 ?
Response given: false

Challenge: Would you mind telling me which call this test gave Cn1ccnc1CCc1ccc(F)cc1F ?
Response given: false

Challenge: Would you mind telling me which call this test gave CCOC(=O)C12CCCC1(O)N(NC(=O)c1cccc(Cl)c1)C(C)=C2C(=O)OC (centres undefined) ?
Response given: false

Challenge: Would you mind telling me which call this test gave COCn1c2ccc(OC(C)=O)cc2c2c(=O)oc(C)nc21 ?
Response given: false

Challenge: Would you mind telling me which call this test gave COc1cc(/C=C(\C)[N+](=O)[O-])cc(OC)c1 ?
Response given: false

Challenge: Would you mind telling me which call this test gave CCOC(=O)CCC(NC(=O)c1ccc(Oc2nc3ccc(C(F)(F)F)cc3nc2-c2ccccc2)cc1)C(=O)OCC (centres undefined) ?
Response given: false

Challenge: Would you mind telling me which call this test gave CC(C)(C)[Si](C)(C)OCC1OC(n2cnc3c(=O)[nH]c(N)nc32)C(O[Si](C)(C)C(C)(C)C)C1O[Si](C)(C)C(C)(C)C (centres undefined) ?
Response given: false

Challenge: Would you mind telling me which call this test gave O=S(O)c1cc(Cl)cc(Cl)c1OCc1ccccc1 ?
Response given: false

====

Tested on: MOLT-4
Experiment: NCI tumour cell line growth inhibition, 48 h
Activity calls are given as the source filed them. No stated cut-off is given here; in the data, active = GI50 up to about 1.1 µM and inactive = higher.
Give one outcome, nothing more. List: class 1 = active, class 0 = inactive

# example entries with known answers
{"Compound": "CCN(CC)c1ccc(/C=C/C(=O)c2cc(C(C)(C)C)c(O)c(C(C)(C)C)c2)cc1", "Cat": "class 0"}
{"Compound": "CN(C)C(=N)NC(N)=S", "Cat": "class 0"}
{"Compound": "C[C@]12CCC(=O)C=C1CC[C@@H]1C2CC[C@@]2(C)C1CC[C@@H]2OC(=O)C12OC1CCC2=O (stereo not given in full)", "Cat": "class 0"}
{"Compound": "c1ccc(-c2sc(-c3ccccc3)c3c2C2CCC3C2)cc1", "Cat": "class 0"}
{"Compound": "CN(C)CCNc1ccc2ncnc3c2c1C(=O)c1ccccc1-3", "Cat": "class 1"}

Challenge: Would you mind telling me which call this test gave Cc1cc(C)c(C2=NO[C@@H]3[C@H]2C(=O)C=C2N(Cc4ccccc4)CCO[C@@]23O)c(C)c1 ?
Response given: class 0

Challenge: Would you mind telling me which call this test gave CN(C)C(=S)OC(Cn1cncn1)c1ccc(Cl)cc1Cl (stereo not given) ?
Response given: class 0

Challenge: Would you mind telling me which call this test gave CC(=O)OCC1OC(n2c(C)c(/N=N/c3ccc(Cl)cc3)c(C)c(C#N)c2=S)C(OC(C)=O)C(OC(C)=O)C1OC(C)=O (stereo not given) ?
Response given: class 0

Challenge: Would you mind telling me which call this test gave CC(=O)Oc1ccc2c(c1OC(C)=O)CCC1C2=CC[C@]2(C)C(=O)CCC12 (stereo not given in full) ?
Response given: class 0

Challenge: Would you mind telling me which call this test gave C=C1C(=O)C23CC1C[C@H](OC(C)=O)C2C1(C)C(OC(C)=O)C[C@H](O)C(C)(C)[C@H]1C(O)[C@@H]3OC(C)=O (stereo not given in full) ?
Response given: class 0

Challenge: Would you mind telling me which call this test gave c1cc(CSSCc2ccncc2)ccn1 ?
Response given: class 0

Challenge: Would you mind telling me which call this test gave Cc1cc(N(CCC#N)CCC#N)ccc1C(/N=N/c1ccc(Cl)cc1)=N\NC(=O)c1cc(Cl)ccc1O ?
Response given: class 0

Challenge: Would you mind telling me which call this test gave O=c1[nH]c2c(nc1NC13CC4CC(CC(C4)C1)C3)c(=O)oc1ccccc12 ?
Response given: class 0

Challenge: Would you mind telling me which call this test gave CN(C(=O)C12C3C4C1C1C2C3C41C(=O)C(C)(C)C)C(C)(C)C (stereo not given) ?
Response given: class 0

Challenge: Would you mind telling me which call this test gave CCOC(=O)C1(C(=O)OCC)C[C@@H](C)[C@@H](O)C1 ?
Response given: class 0

Challenge: Would you mind telling me which call this test gave CCOC(=O)CCC(NC(=O)c1ccc(Oc2nc3ccc(C(F)(F)F)cc3nc2-c2ccccc2)cc1)C(=O)OCC (stereo not given) ?
Response given: class 0

Challenge: Would you mind telling me which call this test gave CC1(C)O[C@@H]2COC(=O)[C@@H]2O1 ?
Response given: class 0

Challenge: Would you mind telling me which call this test gave C=CCOC1=C2CC[C@H](O)[C@@]2(C)CCC1=O ?
Response given: class 0

Challenge: Would you mind telling me which call this test gave COC(=O)CCC1CCc2c(OC)ccc(OC)c2C1=O (stereo not given) ?
Response given: class 0

Challenge: Would you mind telling me which call this test gave Nc1ccc(-c2nc3ccccc3s2)cc1Cl ?
Response given: class 0

Reference for the values: ChEMBL document CHEMBL1201862
